The measured values listed here are drawn from PubChem BioAssay (NCI).

# System: HCT-116 colon
# Test protocol: NCI tumour cell line growth inhibition, 48 h
Readout name: TGI

>>> result("Oc1ccc2ccccc2c1N=Nc1ccc(F)cc1")
"> 100 µM"
>>> result("COc1cc(Cn2c(-c3ccccc3)cc3c2-c2oncc2CC3)cc(OC)c1OC")
"91.7 µM"
>>> result("CC(=O)OCC1OC(N2C(c3ccccc3)=CC(c3ccccc3)C(C#N)=C2S)C(OC(C)=O)C(OC(C)=O)C1OC(C)=O (configuration not stated)")
"> 65.6 µM"
>>> result("CC(C)=CC(=O)N1CCN(C(=O)C=C(C)C)CC1")
"> 100 µM"
>>> result("CSc1nc(NC2OC(COC(C)=O)C(OC(C)=O)C(OC(C)=O)C2OC(C)=O)c2c(OC(C)=O)c(C)c(=O)oc2n1 (configuration not stated)")
"> 100 µM"
>>> result("O=S(O)CCCCSSCCCCSSCCCCS(=O)O")
"> 100 µM"
>>> result("CCCCNC(=O)NS(=O)(=O)c1ccc(N2N=C(c3ccc(C)cc3C)CC2c2ccc(N(C)C)cc2)cc1 (configuration not stated)")
"> 100 µM"
>>> result("COc1ccc(C2CC(=O)c3c(OC)cc(OC)cc3O2)cc1 (configuration not stated)")
"> 100 µM"
>>> result("CN(CCCNc1ccc2ncn3c4ccccc4c(=O)c1c23)CCCN1C(=O)c2cccc3cc([N+](=O)[O-])cc(c23)C1=O")
"0.02 µM"
>>> result("CCOC(=O)CC(NC(=O)c1nc[nH]c1[N+](=O)[O-])C(=O)OCC (configuration not stated)")
"> 100 µM"

## Task Please report the recorded TGI for COc1ccc(-c2c(C(C)=O)c(-c3ccccc3)n(C3OC(COC(C)=O)C(OC(C)=O)C(OC(C)=O)C3OC(C)=O)c(=S)c2C#N)cc1 (configuration not stated) .
## Result > 100 µM

## Task Try this compound next: "N#C/C(C(=S)Nc1ccccc1)=C1/NN=C2c3ccccc3C(=O)NN21"
## Result > 100 µM

====

# Tested on: HOP-62 NSCLC
# Test protocol: NCI tumour cell line growth inhibition, 48 h
Readout name: TGI

Illustrative cases are given below, each with its answer.
>>> result("CCC(C)(O)c1cn(-c2cccc(S(=O)(=O)O)c2)nn1 (stereo not drawn)")
"> 100 µM"
>>> result("O=C(CC(=O)N(C(=O)c1ccccc1)c1ccc(Cl)cc1)N/N=C\\c1cc(N=Nc2ccccc2Cl)ccc1O")
"> 100 µM"

# evaluate next
## Task Please report the recorded TGI for "O=C1c2ccccc2S[C@@H](O)[C@@H]2CCCN12" .
## Result > 100 µM

====

# Test system: HCT-116 colon
# Test protocol: NCI tumour cell line growth inhibition, 48 h
Readout name: TGI

Illustrative cases are given below, each with its answer.
>>> result("Brc1ccc2c(-c3nc(-c4c[nH]c5ccc(Br)cc45)cs3)c[nH]c2c1")
"14.3 µM"
>>> result("COC(=O)C(=O)C(C(=O)C(=O)Nc1ccc(C)cc1C)c1nc2ccccc2[nH]c1=O (stereo unspecified)")
"> 100 µM"
>>> result("Cc1cc(C)cc(Nc2nnc3n2S(=O)(=O)c2cc(C#N)c(Cl)cc2S3)c1")
"6.37 µM"

## Task Please report the recorded TGI for O=C(O)C1C(C(=O)O)C(C(=O)O)C1C(=O)O (stereo unspecified) .
## Result > 100 µM

## Task Try this compound next: "CN(C)C(=S)SN(C)C(=O)Nc1ccccc1"
## Result > 67.4 µM

## Task Try this compound next: CCCN(CCCCC(NC(C)=O)C(=O)NCc1ccccc1)C(=O)N(CCCl)N=O (stereo unspecified)
## Result > 100 µM

====

# Tested on: ACHN renal
# Test protocol: NCI tumour cell line growth inhibition, 48 h
Below: a set of entries, each annotated with reported GI50.

>>> result("COc1cccc(NCc2nnc(Nc3ccc(Cl)cc3)c3ccccc23)c1")
"1.56 µM"
>>> result("Nc1nccc(-c2c(-c3ccc(F)cc3)ncn2CCCN2CCOCC2)n1")
"19.4 µM"
>>> result("Cn1cc(C2=C(c3cn(C)c4c(N)cccc34)C(=O)NC2=O)c2ccccc21")
"1.34 µM"
>>> result("COC(=O)c1ccc2c(c1)n(Cc1ccc3ccccc3c1)c[n+]2Cc1ccc2ccccc2c1")
"10.2 µM"
>>> result("COc1cc2c3c(n(CCCCl)c(=O)c2cc1OC)-c1ccccc1C3=O")
"19.2 µM"
>>> result("COc1ccc(OC(=O)O[C@H]2[C@H](O[C@H]3[C@@H](O)COC(O[C@H]4C[C@H]5[C@@H]6CC=C7C[C@@H](O)CC[C@]7(C)[C@H]6CC[C@]5(C)[C@H]4[C@H](C)C(=O)CCC(C)C)[C@@H]3OC(C)=O)OC[C@@H](O)[C@@H]2O)cc1 (some centres not stated)")
"0.496 µM"

# evaluate next
## Task // lookup GI50 | system=ACHN renal | key= "COc1ccc2cc(C(=O)/C=C/c3cccc(OC)c3OC)ccc2c1"
## Result 8.38 µM

====

Below: a set of entries, each annotated with reported TGI.
# Test system: CAKI-1 renal
# Test protocol: NCI tumour cell line growth inhibition, 48 h

Illustrative cases are given below, each with its answer.
>>> result("CCC(C)(O)c1cn(-c2cccc(S(=O)(=O)O)c2)nn1 (centres undefined)")
"> 100 µM"
>>> result("COc1ccc(C2CC(=O)c3c(OC)cc(OC)cc3O2)cc1 (centres undefined)")
"> 100 µM"
>>> result("CC12CCCC(CC(=O)c3[nH]c4ccccc4c31)C2 (centres undefined)")
"> 78.8 µM"
>>> result("COc1ccc(-c2c(C(C)=O)c(-c3ccccc3)n(C3OC(COC(C)=O)C(OC(C)=O)C(OC(C)=O)C3OC(C)=O)c(=S)c2C#N)cc1 (centres undefined)")
"> 100 µM"
>>> result("COc1cc(C(=O)O[C@H](C(N)=O)[C@]2(C)CO2)c2ccccc2c1")
"39.8 µM"

## Task Please report the recorded TGI for "S=C1Cc2c([nH]c3ccccc23)-c2ccccc2N1" .
## Result 79 µM

====

# Test system: UACC-257 melanoma
# Test protocol: NCI tumour cell line growth inhibition, 48 h
Readout name: GI50

Illustrative cases are given below, each with its answer.
>>> result("CCCCn1c(-c2ccc(C(=O)O/N=C(\\N)c3ccc(OC)cc3)cc2)nc(-c2ccccc2)c1-c1ccccc1")
"3.61 µM"
>>> result("Cn1cc(-c2csc(-c3cccc(F)c3)n2)c2cccnc21")
"21.8 µM"
>>> result("Cn1cc(C2=C(c3cn(C)c4c(N)cccc34)C(=O)NC2=O)c2ccccc21")
"4.76 µM"

# evaluate next
## Task Please report the recorded GI50 for "N#C/C(C(=S)Nc1ccccc1)=C1/NN=C2c3ccccc3C(=O)NN21" .
## Result 39 µM

====

# System: RXF 393 renal
The reply should name one outcome from active, inactive

These solved cases illustrate the format of a correct answer.
>>> class("CC(C)(C)OC(=O)N(CCCN(CCn1c2c(c3ccccc3c1=O)C(=O)c1ccccc1-2)C(=O)OC(C)(C)C)CCn1c2c(c3ccccc3c1=O)C(=O)c1ccccc1-2")
"inactive"
>>> class("COc1ccc(OC(=O)O[C@H]2[C@H](O[C@H]3[C@@H](O)COC(O[C@H]4C[C@H]5[C@@H]6CC=C7C[C@@H](O)CC[C@]7(C)[C@H]6CC[C@]5(C)[C@H]4[C@H](C)C(=O)CCC(C)C)[C@@H]3OC(C)=O)OC[C@@H](O)[C@@H]2O)cc1 (stereo partly specified)")
"active"
>>> class("Cc1cc(C)cc(Nc2cc(C)nc3nc(C(F)(F)F)nn23)c1")
"inactive"

## Task What did the test return for "COc1cc(Cn2c(-c3ccccc3)cc3c2-c2oncc2CC3)cc(OC)c1OC" ?
## Result inactive

## Task Try this molecule next: CCCCNC(=O)NS(=O)(=O)c1ccc(N2N=C(c3ccc(C)cc3C)CC2c2ccc(N(C)C)cc2)cc1 (stereo unspecified)
## Result inactive

## Task Try this molecule next: "COc1ccc(-n2cc(-c3cc(OC)c(OC)c(OC)c3)[nH]c2=S)cc1OC"
## Result inactive

## Task Try this molecule next: "COC(=O)c1cc2c(c(C(=O)OC)c1O)C(=O)C=CC2=O"
## Result inactive

## Task Try this molecule next: "Cc1c2c(nn1-c1ccc(S(=O)(=O)/N=C3\SCC(=O)N3C(=O)c3ccccc3)cc1)-c1ccccc1CC2"
## Result inactive

====

Below: a set of entries, each annotated with reported TGI.
# Tested on: RPMI-8226 leukemia
# Test protocol: NCI tumour cell line growth inhibition, 48 h
Where a SMILES comes first, the peptide text is derived from it. Bridges are numbered along the chain shown (N, C = ends). [ ]: non-standard residue; d: D form. The star is where a group is joined. Cbz = O=C(OCc1ccccc1)*; Aib = CC(C)(N)C(=O)O; OBn = c1ccc(CO*)cc1; βAla = NCCC(=O)O

Illustrative cases are given below, each with its answer.
>>> result("COc1cc(Cc2cc(OC)c(OC)c(OC)c2)ccc1O")
"> 100 µM"
>>> result("Cc1nnc([C@@]2(C)CC[C@H]3[C@@H](CC=C4C[C@@H](O)CC[C@@]43C)[C@@H]2CC#N)o1")
"> 100 µM"
>>> result("CC(=O)SCCC1c2[nH]c3ccccc3c2CCN1O (stereo not given)")
"> 100 µM"

## Task Please report the recorded TGI for "COc1ccc(OC)c(/C=C/NC=O)c1" .
## Result > 100 µM

## Task Try this compound next: "COc1cc(-c2c(C#N)c(N)n3c(nc4ccccc43)c2C#N)cc(Br)c1OC"
## Result > 100 µM

## Task Try this compound next: CC1(C)NC(=O)C(NC(=O)C(CC(=O)OCc2ccccc2)NC(=O)OCc2ccccc2)CCCCNC(=O)CCNC1=O (stereo not given) (Cbz-D(OBn)K[Aib][βAla]; lactam 2-C; configuration not given here)
## Result > 100 µM

## Task Try this compound next: CCOC(=O)[C@H]1Nc2ccc(C)cc2C2c3ccccc3CC21 (stereo not given in full)
## Result > 100 µM

## Task Try this compound next: "CCOC(=O)Cn1sc2ncc([N+](=O)[O-])cc2c1=O"
## Result > 100 µM

## Task Try this compound next: CCCCCCCCCCC(O)C1CCC(C2CCC(C(O)CCCCC(O)CCCCCC(O)CC3=CC(C)OC3=O)O2)O1 (stereo not given)
## Result > 25 µM

## Task Try this compound next: O=C1NNC(=O)C2C3c4ccccc4C(c4ccccc43)C12 (stereo not given)
## Result > 100 µM
